# measuredTarget: human NK3 receptor (Homo sapiens, UniProt P29371)
# Construct: membranes prepared from them
# protocolText: NK3 receptor efficacy and potency assay (FLIPR Calcium 4 assay, BHK cells; agonist and antagonist mode versus NKB)
# conditionsUsed: read-out: Potency cIC50
readoutType: pIC50
Lab note — pIC50 values are minus log10 of concentrations in M.

input: # value lookup — system human NK3 receptor (Homo sapiens, UniProt P29371), readout pIC50, item CC[C@H](NC(=O)c1c(CN2CCC(O)(c3cccc(OC)c3)CC2)n(-c2ccccc2)c(=O)c2c(Cl)cccc12)c1ccccc1
output: 7.39

input: # value lookup — system human NK3 receptor (Homo sapiens, UniProt P29371), readout pIC50, item CC[C@H](NC(=O)c1c(CNCC2CC2)n(-c2ccccc2)c(=O)c2ccccc12)c1ccccc1
output: 6.33

input: # value lookup — system human NK3 receptor (Homo sapiens, UniProt P29371), readout pIC50, item CC[C@H](NC(=O)c1c(CN2CCCC2=O)n(-c2ccccc2)c(=O)c2c(Cl)cccc12)c1ccccc1
output: 7.33

input: # value lookup — system human NK3 receptor (Homo sapiens, UniProt P29371), readout pIC50, item CC[C@H](NC(=O)c1c(CN2CCC3(CC2)OCCO3)n(-c2ccccc2)c(=O)c2ccccc12)c1ccccc1
output: 7.02

input: # value lookup — system human NK3 receptor (Homo sapiens, UniProt P29371), readout pIC50, item CC[C@H](NC(=O)c1c(CN2CCC(O)(c3cccc(OC)c3)CC2)n(-c2cccc(F)c2)c(=O)c2ccccc12)c1ccccc1
output: 7.04

input: # value lookup — system human NK3 receptor (Homo sapiens, UniProt P29371), readout pIC50, item O=C(NC(c1cccc(F)c1)C1CC1)c1c(CN2CCN(CCN3CCCC3)CC2)n(-c2ccccc2)c(=O)c2ccccc12 (stereo not shown)
output: 7.46

input: # value lookup — system human NK3 receptor (Homo sapiens, UniProt P29371), readout pIC50, item Cc1c(C(=O)N[C@H](c2cccc(F)c2)C2CCC2)c2cccc(Cl)c2c(=O)n1-c1ccccc1
output: 7.09

###

Provide the recorded Ki for the entries that follow.
# measuredTarget: human NK3 receptor (Homo sapiens, UniProt P29371)
# Construct: expressed in transfected cells; membranes prepared from them
# protocolText: NK3 receptor binding assay (SPA-based competition binding with 125I-NKB, membranes of BHK cells)
# conditionsUsed: table of Example 10; affinity obtained as described in Example 9; read-out: Affinity Ki
Give the number; nM is assumed, so skip it.

input: If you can, please state the reported Ki value of CC[C@H](NC(=O)c1c(CN2CCC(O)(c3cccc(OC)c3)CC2)n(-c2ccccc2)c(=O)c2c(Cl)cccc12)c1ccccc1 .
output: 8.7

input: If you can, please state the reported Ki value of Cc1c(C(=O)N[C@H](c2ccccc2)C2CC2)c2cccc(F)c2c(=O)n1-c1ccccc1 .
output: 23

input: If you can, please state the reported Ki value of CC[C@H](NC(=O)c1c(CN2CCNC(=O)C2)n(-c2ccccc2)c(=O)c2ccccc12)c1ccccc1 .
output: 340

###

# measuredTarget: human NK3 receptor (Homo sapiens)
# Construct: expressed in transfected cells; membranes prepared from them
# Sequence (P29371 1-465): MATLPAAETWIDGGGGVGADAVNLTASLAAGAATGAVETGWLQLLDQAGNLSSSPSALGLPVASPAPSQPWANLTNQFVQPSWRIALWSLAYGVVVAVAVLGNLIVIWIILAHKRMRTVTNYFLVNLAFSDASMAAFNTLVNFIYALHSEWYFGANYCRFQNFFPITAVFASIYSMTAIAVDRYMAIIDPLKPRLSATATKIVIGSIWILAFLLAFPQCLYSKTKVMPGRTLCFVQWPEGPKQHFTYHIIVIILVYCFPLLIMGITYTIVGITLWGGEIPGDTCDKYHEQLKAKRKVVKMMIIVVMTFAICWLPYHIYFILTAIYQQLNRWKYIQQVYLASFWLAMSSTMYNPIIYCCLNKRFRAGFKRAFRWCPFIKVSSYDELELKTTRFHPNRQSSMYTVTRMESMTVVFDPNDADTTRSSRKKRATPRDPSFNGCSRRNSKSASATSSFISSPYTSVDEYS
# protocolText: NK3 receptor binding assay (SPA-based competition binding with 125I-NKB, membranes of BHK cells)
# conditionsUsed: Ki for the NK3 receptor; table of Example 9; 125I-NKB competition binding; read-out: Ki
Provide the recorded log10 Ki for the entries that follow.
Transform log10 | Measure Ki | Unit µM

input: If you can, please state the reported log10 Ki value of Cc1c(C(=O)NN(c2ccccc2)c2ccccc2)c2ccccc2c(=O)n1-c1ccccc1 .
output: -1.26

input: If you can, please state the reported log10 Ki value of CC[C@H](NC(=O)c1c(CN2CCN(CCN3CCOCC3)CC2)n(-c2ccccc2)c(=O)c2ccccc12)c1ccccc1 .
output: -2.09

input: If you can, please state the reported log10 Ki value of CC[C@H](NC(=O)c1c(CN2CCCC2=O)n(-c2ccccc2)c(=O)c2ccccc12)c1ccccc1 .
output: -1.14

input: If you can, please state the reported log10 Ki value of COc1cccc(C2(O)CCN(Cc3c(C(=O)NC(c4cccc(F)c4)C4CC4)c4ccccc4c(=O)n3-c3ccccc3)CC2)c1 (stereo not drawn) .
output: -2.52

input: If you can, please state the reported log10 Ki value of O=C(NC(c1cccc(F)c1)C1CC1)c1c(CN2CCN(CCN3CCOCC3)CC2)n(-c2ccccc2)c(=O)c2ccccc12 (stereo not drawn) .
output: -2.28

input: If you can, please state the reported log10 Ki value of CC[C@H](NC(=O)c1c(CN(C)C)n(-c2ccccc2)c(=O)c2ccccc12)c1ccccc1 .
output: -0.74

###

# measuredTarget: human NK3 receptor (Homo sapiens)
# Construct: expressed in transfected cells; membranes prepared from them
# Sequence (P29371 1-465): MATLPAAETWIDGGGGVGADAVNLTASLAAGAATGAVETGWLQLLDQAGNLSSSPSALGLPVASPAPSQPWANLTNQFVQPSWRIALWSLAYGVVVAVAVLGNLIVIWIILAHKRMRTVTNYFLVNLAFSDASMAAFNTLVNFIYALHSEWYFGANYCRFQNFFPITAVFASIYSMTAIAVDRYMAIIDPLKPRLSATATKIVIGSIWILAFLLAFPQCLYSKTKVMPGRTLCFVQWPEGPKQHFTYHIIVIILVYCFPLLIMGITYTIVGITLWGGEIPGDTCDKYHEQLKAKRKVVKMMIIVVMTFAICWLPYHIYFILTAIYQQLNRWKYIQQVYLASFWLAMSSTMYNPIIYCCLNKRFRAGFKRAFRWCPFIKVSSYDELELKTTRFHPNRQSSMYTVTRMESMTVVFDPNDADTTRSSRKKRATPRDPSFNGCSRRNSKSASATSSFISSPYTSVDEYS
# protocolText: NK3 receptor binding assay (SPA-based competition binding with 125I-NKB, membranes of BHK cells)
# conditionsUsed: table of Example 10; affinity obtained as described in Example 9; read-out: Affinity Ki
readoutType: Ki (nM)
Give the number; nM is assumed, so skip it.

input: If you can, please state the reported Ki value of CC[C@H](NC(=O)c1c(C)n(-c2ccccc2)c(=O)c2c(Cl)cccc12)c1ccccc1 .
output: 41

input: If you can, please state the reported Ki value of CC[C@H](NC(=O)c1c(CN2CCN(C(C)(C)C)CC2)n(-c2ccccc2)c(=O)c2c(Cl)cccc12)c1ccccc1 .
output: 11

input: If you can, please state the reported Ki value of Cc1c(C(=O)N[C@@H](c2cccc(F)c2)C2CC2)c2cccc(Cl)c2c(=O)n1-c1ccccc1 .
output: 470

input: If you can, please state the reported Ki value of CC[C@H](NC(=O)c1c(CN2CC[C@H](O)C2)n(-c2ccccc2)c(=O)c2ccccc12)c1ccccc1 .
output: 140

input: If you can, please state the reported Ki value of CCC(CO)NCc1c(C(=O)N[C@@H](CC)c2ccccc2)c2ccccc2c(=O)n1-c1ccccc1 (some centres unmarked) .
output: 240

input: If you can, please state the reported Ki value of O=C(NC(c1cccc(F)c1)C1CC1)c1c(CN2CCN(Cc3ccncc3)CC2)n(-c2ccccc2)c(=O)c2ccccc12 (centres unmarked) .
output: 8.2

input: If you can, please state the reported Ki value of O=C(NC(c1cccc(F)c1)C1CC1)c1c(CN2CCC(CCN3CCOCC3)CC2)n(-c2ccccc2)c(=O)c2ccccc12 (centres unmarked) .
output: 8.8

input: If you can, please state the reported Ki value of COc1cccc(C2(O)CCN(Cc3c(C(=O)NC(c4cccc(F)c4)C4CC4)c4ccccc4c(=O)n3-c3ccccc3)CC2)c1 (centres unmarked) .
output: 4.5

input: If you can, please state the reported Ki value of CC[C@H](NC(=O)c1c(CN2CCC(O)(c3cccc(OC)c3)CC2)n(-c2cccc(F)c2)c(=O)c2ccccc12)c1ccccc1 .
output: 17

input: If you can, please state the reported Ki value of CC[C@H](NC(=O)c1c(CN2CCCC2=O)n(-c2ccccc2)c(=O)c2ccccc12)c1ccccc1 .
output: 88

input: If you can, please state the reported Ki value of Cc1c(C(=O)N[C@H](c2cccc(F)c2)C2CC2)c2cccc(Cl)c2c(=O)n1-c1ccccc1 .
output: 27

input: If you can, please state the reported Ki value of CC[C@H](NC(=O)c1c(CN2CCN(CCN3CCOCC3)CC2)n(-c2ccccc2)c(=O)c2ccccc12)c1ccccc1 .
output: 8.8

input: If you can, please state the reported Ki value of Cc1c(C(=O)N[C@H](c2ccccc2)C2CCC2)c2cccc(Cl)c2c(=O)n1-c1ccccc1 .
output: 23

input: If you can, please state the reported Ki value of CC(C)(C)N1CCN(Cc2c(C(=O)N[C@H](c3cccc(F)c3)C3CC3)c3cccc(F)c3c(=O)n2-c2ccccc2)CC1 .
output: 7.9

Values from patent EP2150534B1
